# Test system: Aβ42
# method description: Quantification of Aβ peptide in culture of neurons from rat fetus brain (Aβ ELISA)
# Type: cell-based
# protocol conditions: Primary cortical neuron, 72 h, IC50 for decrease in the Aβ42 concentration in the medium, three days after addition of the compound, read-out: Aβ42 production reducing effect
pIC50: −log10 of the molar value.
readout kind: pIC50

INSERT INTO results (compound, readout_kind, numeric_value) VALUES
  ('NC1=NC2(CCOc3ccc(NC(=O)c4ncc(Cl)cc4Cl)cc32)CCS1 (centres unmarked)', 'pIC50', 7.33),
  ('NC1=NC2(CCOc3ccc(NC(=O)c4ccc(C(F)(F)F)cn4)cc32)CCS1 (centres unmarked)', 'pIC50', 7.15),
  ('NC1=NC2(CCOc3ccc(NC(=O)c4ncc(Br)cn4)cc32)CCS1 (centres unmarked)', 'pIC50', 7.20);

[P] N#Cc1ccc(C(=O)Nc2ccc3c(c2)C2(CCO3)CCSC(N)=N2)nc1 (centres unmarked)
[Q] NC1=NC2(CCOc3ccc(NC(=O)c4ccc(Br)cn4)cc32)CCS1 (centres unmarked)
Enquiry: Of P and Q , whose reported pIC50 is numerically smaller? Use the label to indicate which entry you chose.
Return: P

Recorded values, source patent US8501733B2.
